meta.source: patent US20150147316A1

Molecular target: T1, human CD33 (human, UniProt P20138 18-364)
T1 construct: Endogenous on HL-60 and HEL 92.1.7 AML cells, or recombinant on transfected HEK293F cells; The signal peptide is stated as amino acids 1-17; also called hCD33
T1 sequence (P20138 18-364): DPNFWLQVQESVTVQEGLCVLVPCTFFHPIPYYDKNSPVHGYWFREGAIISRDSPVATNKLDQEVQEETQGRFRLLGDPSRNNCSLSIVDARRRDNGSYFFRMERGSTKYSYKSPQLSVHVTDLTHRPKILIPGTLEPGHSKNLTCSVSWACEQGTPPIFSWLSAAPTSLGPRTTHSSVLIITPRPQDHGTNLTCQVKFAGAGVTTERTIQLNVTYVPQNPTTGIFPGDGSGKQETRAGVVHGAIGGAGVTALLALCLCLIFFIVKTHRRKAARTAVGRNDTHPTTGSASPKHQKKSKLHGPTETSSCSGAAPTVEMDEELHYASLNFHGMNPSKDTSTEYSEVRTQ
Test: flow cytometry on HEL 92.1.7 AML cells; competition with 1 nM AlexaFluor-647 m2H12 (methods paragraph 148)
propertyMeasured: EC50 (nM)
Reply numerically in nM, unit not repeated.

Query block: Would you kindly share the measured EC50 for cHLG (antibody, V domains shown, Hybrid of the chimeric heavy chain (murine VH, human constant region) and humanized light chain LG) VH: QVQLQQSGPELVRPGTFVKISCKASGYTFTNYDINWVNQRPGQGLEWIGWIYPGDGSTKYNEKFKAKATLTADKSSSTAYLQLNNLTSENSAVYFCASGYEDAMDYWGQGTSVTVSS VL: DIQMTQSPSSLSASVGDRVTINCKASQDINSYLSWFQQKPGKAPKTLIYRANRLVDGVPSRFSGSGSGQDYTLTISSLQPEDFATYYCLQYDEFPLTFGGGTKVEIK ?
Result block: 1.91

Query block: Would you kindly share the measured EC50 for cHLC (antibody, V domains shown, Hybrid of the chimeric heavy chain (murine VH, human constant region) and humanized light chain LC) VH: QVQLQQSGPELVRPGTFVKISCKASGYTFTNYDINWVNQRPGQGLEWIGWIYPGDGSTKYNEKFKAKATLTADKSSSTAYLQLNNLTSENSAVYFCASGYEDAMDYWGQGTSVTVSS VL: DIQMTQSPSSLSASVGDRVTITCKASQDINSYLSWFQQKPGKAPKTLIYRANRLVDGVPSRFSGSGSGTDFTLTISSLQPEDFATYYCLQYDEFPLTFGGGTKVEIK ?
Result block: 2.49

Query block: Would you kindly share the measured EC50 for murine mAb 2H12 (antibody, V domains shown, Murine monoclonal antibody from Balb/c mice; also called m2H12; murine 2H12 antibody) VH: QVQLQQSGPELVRPGTFVKISCKASGYTFTNYDINWVNQRPGQGLEWIGWIYPGDGSTKYNEKFKAKATLTADKSSSTAYLQLNNLTSENSAVYFCASGYEDAMDYWGQGTSVTVSS VL: DIKMTQSPSSMYASLGERVIINCKASQDINSYLSWFQQKPGKSPKTLIYRANRLVDGVPSRFSGSGSGQDYSLTISSLEYEDMGIYYCLQYDEFPLTFGAGTKLELK ?
Result block: 2.38

Query block: Would you kindly share the measured EC50 for HCcL (antibody, V domains shown, Hybrid of humanized heavy chain HC and the chimeric light chain (murine VL, human constant region)) VH: QVQLVQSGAEVKKPGASVKVSCKASGYTFTNYDINWVRQAPGQGLEWMGWIYPGDGSTKYNEKFKARVTMTTDTSTSTAYMELRSLRSDDTAVYYCASGYEDAMDYWGQGTTVTVSS VL: DIKMTQSPSSMYASLGERVIINCKASQDINSYLSWFQQKPGKSPKTLIYRANRLVDGVPSRFSGSGSGQDYSLTISSLEYEDMGIYYCLQYDEFPLTFGAGTKLELK ?
Result block: 2.95

Query block: Would you kindly share the measured EC50 for cHLA (antibody, V domains shown, Hybrid of the chimeric heavy chain (murine VH, human constant region) and humanized light chain LA) VH: QVQLQQSGPELVRPGTFVKISCKASGYTFTNYDINWVNQRPGQGLEWIGWIYPGDGSTKYNEKFKAKATLTADKSSSTAYLQLNNLTSENSAVYFCASGYEDAMDYWGQGTSVTVSS VL: DIQMTQSPSSLSASVGDRVTITCKASQDINSYLSWFQQKPGKAPKSLIYRANRLVDGVPSRFSGSGSGTDFTLTISSLQPEDFATYYCLQYDEFPLTFGGGTKVEIK ?
Result block: 2.61

Query block: Would you kindly share the measured EC50 for cHLD (antibody, V domains shown, Hybrid of the chimeric heavy chain (murine VH, human constant region) and humanized light chain LD) VH: QVQLQQSGPELVRPGTFVKISCKASGYTFTNYDINWVNQRPGQGLEWIGWIYPGDGSTKYNEKFKAKATLTADKSSSTAYLQLNNLTSENSAVYFCASGYEDAMDYWGQGTSVTVSS VL: DIQMTQSPSSLSASVGDRVTITCKASQDINSYLSWFQQKPGKAPKSLIYRANRLVDGVPSRFSGSGSGQDFTLTISSLQPEDFATYYCLQYDEFPLTFGGGTKVEIK ?
Result block: 2.48

Query block: Would you kindly share the measured EC50 for h2H12 antibody (2H12 HILG) (antibody, V domains shown, also called humanized 2H12; human 2H12 antibody) VH: QVQLVQSGAEVKKPGASVKVSCKASGYTFTNYDINWVRQAPGQGLEWIGWIYPGDGSTKYNEKFKAKATLTADTSTSTAYMELRSLRSDDTAVYYCASGYEDAMDYWGQGTTVTVSS VL: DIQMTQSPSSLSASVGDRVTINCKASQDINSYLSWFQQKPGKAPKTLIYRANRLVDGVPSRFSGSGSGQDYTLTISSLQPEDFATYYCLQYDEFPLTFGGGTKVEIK ?
Result block: 3.39

Query block: Would you kindly share the measured EC50 for c2H12 (antibody, V domains shown, also called chimeric 2H12) VH: QVQLQQSGPELVRPGTFVKISCKASGYTFTNYDINWVNQRPGQGLEWIGWIYPGDGSTKYNEKFKAKATLTADKSSSTAYLQLNNLTSENSAVYFCASGYEDAMDYWGQGTSVTVSS VL: DIKMTQSPSSMYASLGERVIINCKASQDINSYLSWFQQKPGKSPKTLIYRANRLVDGVPSRFSGSGSGQDYSLTISSLEYEDMGIYYCLQYDEFPLTFGAGTKLELK ?
Result block: 1.97

Query block: Would you kindly share the measured EC50 for cHLF (antibody, V domains shown, Hybrid of the chimeric heavy chain (murine VH, human constant region) and humanized light chain LF) VH: QVQLQQSGPELVRPGTFVKISCKASGYTFTNYDINWVNQRPGQGLEWIGWIYPGDGSTKYNEKFKAKATLTADKSSSTAYLQLNNLTSENSAVYFCASGYEDAMDYWGQGTSVTVSS VL: DIQMTQSPSSLSASVGDRVIINCKASQDINSYLSWFQQKPGKAPKSLIYRANRLVDGVPSRFSGSGSGTDFTLTISSLQPEDFATYYCLQYDEFPLTFGGGTKVEIK ?
Result block: 2.02

Query block: Would you kindly share the measured EC50 for HIcL (antibody, V domains shown, Hybrid of humanized heavy chain HI and the chimeric light chain (murine VL, human constant region)) VH: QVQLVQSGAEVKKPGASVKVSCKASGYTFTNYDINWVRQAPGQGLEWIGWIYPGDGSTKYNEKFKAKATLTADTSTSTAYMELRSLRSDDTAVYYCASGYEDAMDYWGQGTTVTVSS VL: DIKMTQSPSSMYASLGERVIINCKASQDINSYLSWFQQKPGKSPKTLIYRANRLVDGVPSRFSGSGSGQDYSLTISSLEYEDMGIYYCLQYDEFPLTFGAGTKLELK ?
Result block: 2.56

Query block: Would you kindly share the measured EC50 for cHLE (antibody, V domains shown, Hybrid of the chimeric heavy chain (murine VH, human constant region) and humanized light chain LE) VH: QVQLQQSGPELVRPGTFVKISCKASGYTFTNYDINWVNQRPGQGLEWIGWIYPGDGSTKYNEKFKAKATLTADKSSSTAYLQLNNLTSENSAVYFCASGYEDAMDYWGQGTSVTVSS VL: DIQMTQSPSSLSASVGDRVTITCKASQDINSYLSWFQQKPGKAPKSLIYRANRLVDGVPSRFSGSGSGTDYTLTISSLQPEDFATYYCLQYDEFPLTFGGGTKVEIK ?
Result block: 1.95

Query block: Would you kindly share the measured EC50 for cHLB (antibody, V domains shown, Hybrid of the chimeric heavy chain (murine VH, human constant region) and humanized light chain LB) VH: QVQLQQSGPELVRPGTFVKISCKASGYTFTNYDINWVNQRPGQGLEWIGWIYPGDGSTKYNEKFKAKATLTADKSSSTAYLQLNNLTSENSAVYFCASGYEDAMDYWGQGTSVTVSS VL: DIKMTQSPSSLSASVGDRVTITCKASQDINSYLSWFQQKPGKAPKSLIYRANRLVDGVPSRFSGSGSGTDFTLTISSLQPEDFATYYCLQYDEFPLTFGGGTKVEIK ?
Result block: 2.53
